Provide the reported growth of each item.
# System: SR leukemia
# assay_notes: NCI-60 one-dose screen, 48 h (100 = growth as untreated, 0 = no growth, -100 = all killed)
# measurement_parameters: 10 µM unless noted
# Procedure: Growth inhibition of the SR human tumor cell line is measured as a screen for anti-cancer activity. Cells are grown in 96 well plates and exposed to the test compound for 48 hours. Compounds are tested at a single concentration, which is 10^-5 M for most compounds. The reported endpoint is percent growth (GI% or GIPRCNT), where numbers from 0 - 100% represent growth inhibition, and numbers from -100% - 0 represent cell death. For example, a value of 40 represents 60% growth inhibition. […]
About 83,000 compounds went through this panel and 20% of them were active in at least one assay; those are over-represented in the sample as a whole.
Answers are plain numbers, in %.

Before answering, review these 2 worked examples.
O=C(O)c1c([N+](=O)[O-])cnc2ccccc12 ... 135
COc1ccc(/C=c2/c(=O)[nH]c3nc4sc(C)c(C)c4c(=O)n23)cc1 ... 53.9

Batch of 4 compounds: report growth for each.
1. CCC(=O)OCc1cccc(OC)c1
2. C=C1C(=O)O[C@H]2[C@H]1CC/C(Cn1cc(Cn3ccc4ccccc43)nn1)=C\CC[C@@]1(C)O[C@@H]21
3. O=C1/C(=C/c2ccc(Cl)c(Cl)c2)CN(C(=O)CCN2CCC(=NO)CC2)C/C1=C\c1ccc(Cl)c(Cl)c1
4. COc1ccc(CCN2CC=Cn3c2nc2ccccc2c3=O)cc1

1: 116; 2: -18.4; 3: -14; 4: 22.1

Parameters: items (list). Returns: growth for each item.
1. Cc1ccc(Nc2c(C(N)=O)cnc3ccc(-c4csc(N)n4)cc23)cc1
2. COc1cc(NCCCCN=C(N)N)c2ncccc2c1
3. CCCCCCCCCC(=O)Oc1ccc(/C(=C(/C)Cc2cccc(OC)c2)c2ccc(OCCN(C)C)cc2)cc1
4. Nc1cccc(NC(=O)C(=O)Nc2cccc(N)c2)c1
5. CCCCCCCCCCCCNC(=O)[C@H]1CSC(c2ccc(OC)c(F)c2)N1 (some centres not stated)
6. CC/C(Cc1ccccc1)=C(/c1ccc(O)cc1)c1ccc(OCCN2CCCC2)cc1

1. 94.8
2. 116
3. 106
4. 115
5. -50.9
6. -40.2

---

# Test system: M14 melanoma
# assay_notes: NCI-60 one-dose screen, 48 h
# measurement_parameters: 10 µM unless noted
This is part of a sample that, as a whole, favours compounds with a hit. Of some 83,000 tested, about 20% had one in any assay. Activity calls are given as the source filed them. How the source made its calls: active means growth percent below 10; inactive means the rest.
Select the matching outcome among true for active, false for inactive

Example results:
CCCC(=O)Oc1ccc(/C(=C(/CC)Cc2ccccc2)c2ccc(OCCN3CCCC3)cc2)cc1 ... false
Cn1cc(-c2csc(-c3cn(C)c4ncccc34)n2)c2ccccc21 ... false
CCN(CC)Cc1cc(Nc2c3ccccc3nc3cc(Cl)ccc23)ccc1O ... true
CCCCCN(CCCCC)CCC[C@@H](C)[C@H]1CC[C@H]2[C@@H]3[C@H](OCCCN)C[C@@H]4C[C@H](OCCCN)CC[C@]4(C)[C@H]3C[C@H](OCCCN)[C@]12C ... false
COc1ccc(CNc2nccnn2)cc1 ... false

// param item: C[C@@H]1CC[C@@H]2[C@@H]1[C@H](OC(=O)/C=C/c1ccccc1)[C@]1(c3ccccc3)C[C@@H](OC(=O)CO)[C@@]2(C)O1 ; yields the recorded call
false

For CSc1ccc(N=C=C(c2ccccc2)c2ccccc2)cc1 , what call appears in the results of this test?
false

What did the test return for CCCCCCCCCCCCN1CCCC(C)C1 (stereo unspecified) ?
false

# fetch the recorded call for COc1ccc(-c2c(C)noc2-c2ccc(O)cc2O)cc1 here
false

Query: recorded result category for CCOC(=O)c1cnc2ccc(OC)cc2c1Nc1cccc(S(=O)(=O)NC)c1 in this test
false

Test call for this compound, please: Oc1ccccc1N=Cc1c(O)ccc2ccccc12
false
